We begin with a simple list: items and their reported koff.
# experimentalTarget: T1, hPRLR.mmh (soluble monomeric human PRLR) (human)
# T1 construct: called soluble monomeric PRLR protein
# T1 chain: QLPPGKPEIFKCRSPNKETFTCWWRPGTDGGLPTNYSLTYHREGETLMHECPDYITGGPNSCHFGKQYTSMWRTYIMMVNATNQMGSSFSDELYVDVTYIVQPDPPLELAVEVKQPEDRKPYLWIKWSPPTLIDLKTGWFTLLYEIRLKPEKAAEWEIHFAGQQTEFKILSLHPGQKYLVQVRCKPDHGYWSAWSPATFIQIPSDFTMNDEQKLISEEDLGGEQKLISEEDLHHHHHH
# assayExplanation: SPR Biacore, 25 C, mAb capture

binder	koff / s⁻¹
H1H6782P (antibody, human IgG1, V domains shown, Human IgG1 Fc (H1H)) VH: EVQLVESGGGLVQPGRSLRLSCAASGFTFDDYAMHWVRQAPGKGLEWVSGIIWNSGHIGYGDSVKGRFTISRDNAKKSLYLQMNSLRAEDTALYYCARDSGRYQSYFDYWGQGTLVTVSS VL: DIQMTQSPSTLSASVGDRVTITCRASHIISSWLAWYQQKPGKAPKVLIFKASSLESGVPSRFSGSGSGTEFTLTISSLQPDDFATYYCQQYNTYSRTFGQGTKVEIK	0.000247
H1H6792P (antibody, human IgG1, V domains shown, Human IgG1 Fc (H1H)) VH: EVQLVESGGGLVQPGRSLRLSCAASGFTLDDHAVHWVRQAPGKGLEWVSGISWNSVYIDYADSVKGRFTIFRDNAKNSLYLQMNSLRAEDTAFYYCARDIEGARDYWGQGTLVTVSS VL: DIQMTQSPSSLSASVGDRVTITCRASQGIRNDLGWYQQKPGKAPKRLIYAASSLQSGVPSRFSGSGYGTEFTLTISSLQPEDFAPYYCLQHNSYPLTFGGGTKVEIK	0.000794
H1H6801P (antibody, human IgG1, V domains shown, Human IgG1 Fc (H1H)) VH: QVQLQQSGPGLVKPSQTLSLTCVISGDSVSSNTAWNWVRQSPSRGLEWLGRTYYRSKWYNDYAVSVKSRITINPDTSKNQFSLLMNSVTPEDTAVYYCARVVRGLNYFDYWGQGTLVTVSS VL: DIVMTQSPDSLAVSLGERATINCKSSQSVLYNSNNKNYLAWYQQKPGQPPKLLIYWSSSRESGVPDRFSGSGSGTDFTLTISGLQAEDVAIYYCQQYSTIPYTFGQGTKLEIK	0.000756
